- Tested on: aggregated platelets induced by ADP
- method: Platelet disaggregation rate of blood samples with ADP-induced platelet aggregation (hematology analyzer, PLT_O)
- setup.conditions: Table 2; compound 0.01 mol/L, pH 14, ADP 0.01 mmol/L
reported.metric: Platelet disaggregation rate

{"molecule": "N=C(N)N [guanidine]", "Platelet disaggregation rate": "84.35%"}
{"molecule": "CC(=O)NC(C)=O [diacetamide]", "Platelet disaggregation rate": "75.43%"}
{"molecule": "CNCC(=O)O [sarcosine]", "Platelet disaggregation rate": "64.75%"}
{"molecule": "O=S(=O)(O)c1ccccc1 [benzenesulfonic acid, reference compound]", "Platelet disaggregation rate": "13.77%"}
{"molecule": "CC(=O)CC(C)=O [acetylacetone, reference compound]", "Platelet disaggregation rate": "8.45%"}
{"molecule": "CCO [ethanol, reference compound]", "Platelet disaggregation rate": "14.46%"}
{"molecule": "CNCCO [2-(methylamino)ethanol]", "Platelet disaggregation rate": "82.49%%"}
{"molecule": "CC=O [acetaldehyde, reference compound]", "Platelet disaggregation rate": "16.54%"}

Q: Name the recorded Platelet disaggregation rate for NCC(=O)O [glycine] .
A: 65.47%

Q: Name the recorded Platelet disaggregation rate for CNCc1ccc(O)cc1 [4-[(methylamino)methyl]phenol] .
A: 59.43%

Q: Name the recorded Platelet disaggregation rate for CC(N)=O [acetamide] .
A: 64.57%

====

- method: pKa of the amino group of the compound
- setup.conditions: pKa, Table 3
The compounds listed here are annotated with their pKa.
The response must contain the number and no unit.

Some compounds with recorded pKa:
{"compound": "Nc1ccc(N)c(S(=O)(=O)O)c1", "observed.result": 5.17}
{"compound": "CNC(CC(N)=O)C(N)=O (centres unmarked) [2-(methylamino) succinamide]", "observed.result": 7.02}
{"compound": "N=C(N)NC(=N)N [biguanide]", "observed.result": 13.2}
{"compound": "Nc1ccc(S(=O)(=O)O)cc1", "observed.result": 3.32}
{"compound": "NCCCCC(N)C(=O)O (centres unmarked)", "observed.result": 10.8}
{"compound": "NCC(CN)CN", "observed.result": 9.59}

Q: Name the recorded pKa for "Nc1cc(N)cc(N)c1" .
A: 5.5

Q: Name the recorded pKa for NCCCCC(N)C(=O)NC(CCCCN)C(=O)O (centres unmarked) .
A: 11

====

- method: pKa of the amino group of the compound
- setup.conditions: pKa, Example 4
reported.metric: pKa
The response must contain the number and no unit.

Some compounds with recorded pKa:
{"compound": "NCCCCC(N)C(=O)O (stereo not drawn) [lysine]", "pKa": 10.7}
{"compound": "Nc1ccc(S(=O)(=O)O)cc1 [sulfanilic acid]", "pKa": 10.1}

Q: Name the recorded pKa for CC(=O)NC(=N)N [1-acetylguanidine] .
A: 8.33

====

- method: physchem
- setup.conditions: pKa
reported.metric: pKa
The response must contain the number and no unit.

Q: Name the recorded pKa for "Nc1cccc(N)c1" .
A: 4.67

====

- method: pKa of the amino group of the compound
- setup.conditions: pKa, Table 5
reported.metric: pKa
The response must contain the number and no unit.

Some compounds with recorded pKa:
{"compound.structure.string": "NCC(CN)CN", "observed.result": 9.6}
{"compound.structure.string": "CC(=O)NC(=N)N", "observed.result": 8.3}

Q: Name the recorded pKa for "N=C(N)NCCC[C@H](N)C(=O)O" .
A: 9
